Molecular target: CYP2C9 (Homo sapiens, UniProt P11712)
Sequence (P11712 whole entry): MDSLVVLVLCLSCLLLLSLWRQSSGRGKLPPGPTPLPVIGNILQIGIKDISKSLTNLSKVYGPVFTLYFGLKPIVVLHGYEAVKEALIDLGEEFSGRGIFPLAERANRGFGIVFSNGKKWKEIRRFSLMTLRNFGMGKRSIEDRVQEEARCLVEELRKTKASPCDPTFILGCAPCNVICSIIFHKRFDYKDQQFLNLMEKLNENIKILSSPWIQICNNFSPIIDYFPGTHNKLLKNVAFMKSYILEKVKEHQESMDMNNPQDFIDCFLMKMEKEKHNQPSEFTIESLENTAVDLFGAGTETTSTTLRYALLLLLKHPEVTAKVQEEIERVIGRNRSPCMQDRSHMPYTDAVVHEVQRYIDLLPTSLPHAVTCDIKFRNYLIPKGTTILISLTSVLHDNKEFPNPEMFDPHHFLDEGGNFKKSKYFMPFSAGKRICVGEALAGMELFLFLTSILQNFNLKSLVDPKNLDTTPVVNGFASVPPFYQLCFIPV
Experiment: P450 cytochrome inhibition fluorometric assay CYP2C9
Format: in vitro ADME
Details: degree of inhibition; read-out: CYP2C9 Inhibitor category
pIC50: −log10 of the molar value.
readout_kind: pIC50

Quickly give me recorded pIC50 for CCCCCCCC/C=C\CCCCCCCC(=O)NC(C)Cc1ccc(O)c(O)c1 (stereo not shown) [OLHHA]
5.00 to 6.00

---

Biological target: UniProt:Q12809
Sequence (Q12809 whole entry): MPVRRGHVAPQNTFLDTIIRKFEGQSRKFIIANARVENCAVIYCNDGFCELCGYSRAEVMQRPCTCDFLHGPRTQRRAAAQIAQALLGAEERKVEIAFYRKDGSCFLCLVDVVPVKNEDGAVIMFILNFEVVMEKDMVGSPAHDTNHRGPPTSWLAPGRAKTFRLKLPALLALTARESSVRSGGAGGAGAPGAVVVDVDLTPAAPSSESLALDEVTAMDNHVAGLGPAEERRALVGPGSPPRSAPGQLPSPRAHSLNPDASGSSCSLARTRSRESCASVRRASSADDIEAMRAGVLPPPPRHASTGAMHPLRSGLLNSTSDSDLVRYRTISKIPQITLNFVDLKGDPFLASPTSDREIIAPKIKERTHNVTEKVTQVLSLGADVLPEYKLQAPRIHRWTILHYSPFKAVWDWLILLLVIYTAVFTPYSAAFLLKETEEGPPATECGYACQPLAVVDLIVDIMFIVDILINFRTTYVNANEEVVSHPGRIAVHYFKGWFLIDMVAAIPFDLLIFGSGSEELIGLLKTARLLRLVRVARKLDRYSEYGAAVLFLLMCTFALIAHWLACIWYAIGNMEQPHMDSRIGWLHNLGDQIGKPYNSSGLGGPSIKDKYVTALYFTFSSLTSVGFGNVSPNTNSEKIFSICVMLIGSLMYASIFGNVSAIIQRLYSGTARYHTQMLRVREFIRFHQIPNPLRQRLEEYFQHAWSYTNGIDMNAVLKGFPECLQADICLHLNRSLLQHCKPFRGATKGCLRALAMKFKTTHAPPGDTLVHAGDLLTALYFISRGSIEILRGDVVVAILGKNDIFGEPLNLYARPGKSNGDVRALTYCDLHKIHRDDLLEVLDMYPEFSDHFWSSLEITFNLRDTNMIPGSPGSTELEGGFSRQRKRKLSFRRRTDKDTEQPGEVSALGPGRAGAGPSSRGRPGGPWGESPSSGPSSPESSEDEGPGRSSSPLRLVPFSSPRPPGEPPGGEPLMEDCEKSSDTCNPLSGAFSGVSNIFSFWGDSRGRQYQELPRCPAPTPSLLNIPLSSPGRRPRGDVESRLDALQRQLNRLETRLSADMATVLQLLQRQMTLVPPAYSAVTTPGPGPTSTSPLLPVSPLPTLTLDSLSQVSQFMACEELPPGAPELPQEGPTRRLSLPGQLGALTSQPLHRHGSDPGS
Experiment: hERG channel functional assay (FluxOR thallium fluorescence)
Conditions: HEK-293 cells expressing hERG, maximum concentration 150 μM
Text: The hERG channel assay was used to identify if OLHHA may cause cardiotoxicity (FIG. 8). […] FluxOR™ is protected by AM groups which prevent fluorescence outside the cell. When it enters the cell, esterases in the cytosol remove the AM groups, and FluxOR™ will be converted to its active form in which it is capable of binding to thallium, which moves into the cytoplasm through the hERG channel, resulting in the emission of fluorescence. […]
readout_kind: IC50

Give IC50 for CCCCCCCC/C=C\CCCCCCCC(=O)NC(C)Cc1ccc(O)c(O)c1 (stereo not shown) [OLHHA] tested on UniProt:Q12809.
> 150 µM
